measure: melting point

Some entries whose results are on file:
INSERT INTO measurements (compound, measure, result) VALUES
  ('O=C(O)c1oc2ccccc2c1CSc1nnc[nH]1', 'melting point', '159 to 161 °C'),
  ('CCOc1ccc(-c2cc(C(=O)O)c3c(C)noc3n2)cc1', 'melting point', '222 to 224 °C'),
  ('Nc1nc(-c2ccccc2F)cs1', 'melting point', '102 to 104 °C'),
  ('CN(c1ccc(C(=O)O)cc1)C1CCCCC1', 'melting point', '148 to 150 °C'),
  ('CC(=O)CC(=O)c1cccc(Cl)c1', 'melting point', '39 to 41 °C');

**Query** What value of melting point has been reported for the following compound? `O=C(O)c1cccc(S(=O)(=O)N2CCc3ccccc3C2)c1`
**Result** 55 to 58 °C

**Query** Now try `O=C(O)CCCNS(=O)(=O)c1ccc2c(c1)OCCO2` .
**Result** 120 to 122 °C

**Query** Now try `O=[N+]([O-])c1ccc(O)c(-n2cnnn2)c1` .
**Result** 199 to 201 °C

**Query** Now try `CC(=O)c1nc2ccc(C)cc2[nH]1` .
**Result** 156 to 158 °C

**Query** Now try `O=C(O)c1n[nH]ccc1=O` .
**Result** 199 to 201 °C

**Query** Now try `CNc1sccc1C#N` .
**Result** 71 to 73 °C

**Query** Now try CC(C)(C)OC(=O)NC(CCC(=O)O)c1ccccc1 (configuration not stated) .
**Result** 151 to 153 °C

====

Parameter: melting point. Scope: all listed entries.

INSERT INTO assay_data (compound, measure, result) VALUES
  ('CCN1C(=O)CNC1=O', 'melting point', '100 to 102 °C');

**Query** What value of melting point has been reported for the following compound? `CNC(=O)CC(=O)O`
**Result** 104 to 106 °C

**Query** Now try `COC(=O)Cn1nc2ccc(Cl)nn2c1=O` .
**Result** 158 to 160 °C

**Query** Now try `ON=Cc1ccccc1OCc1cn2ccccc2n1` .
**Result** 197 to 199 °C

**Query** Now try `c1ccc(CN2CCN(Cc3ccccc3)CC2)cc1` .
**Result** 89 to 91 °C

**Query** Now try O=C(O)CCC1NC(=O)N(c2ccc(Cl)cc2)C1=O (stereo not drawn) .
**Result** 212 to 214 °C

**Query** Now try `O=C(NCCO)c1ccc(Cl)nn1` .
**Result** 119 to 121 °C

**Query** Now try c1nnc(C2CCCNC2)[nH]1 (stereo not drawn) .
**Result** 149 to 151 °C

**Query** Now try `COc1ccccc1NS(=O)(=O)c1ccc(N2CCOCC2)c(N)c1` .
**Result** 150 to 152 °C

**Query** Now try `C#CCNC(=O)c1ccc(Cl)nc1` .
**Result** 139 to 141 °C

**Query** Now try `Cc1ccc(S(N)(=O)=O)cc1C(N)=O` .
**Result** 192 to 194 °C

**Query** Now try CC(Sc1nnnn1C1CC1)C(=O)O (stereo not drawn) .
**Result** 116 to 118 °C

**Query** Now try `Nc1c(-c2ccco2)nc2ccccn12` .
**Result** 165 to 167 °C

**Query** Now try `Nc1ccc2nc(C3CC3)oc2c1` .
**Result** 99 to 101 °C

**Query** Now try O=C(O)CC(O)(c1ncc[nH]1)C(F)(F)F (stereo not drawn) .
**Result** 208 to 210 °C

**Query** Now try CNC(=O)C1Cc2ccccc2CN1 (stereo not drawn) .
**Result** 97 to 99 °C

**Query** Now try `O=C(CCl)Nc1ccnn1Cc1ccccc1Cl` .
**Result** 119 to 121 °C
